Source listed as patent US9801901B2.

System: V12 5725 (Wales) Klebsiella pneumoniae
Test: MIC assay, CAMHB with alginate oligomer, no visible growth
Assay type: cell-based
Condition details: Table 5; V12 MDR Kleb pneu; OligoCF-5/20 +6% G
Assign MIC to each entry below.
A number alone suffices; assume µg/mL.

Fill in: MIC of CC[C@H]1OC(=O)[C@H](C)[C@@H](O[C@H]2C[C@@](C)(OC)[C@@H](O)[C@H](C)O2)[C@H](C)[C@@H](O[C@@H]2O[C@H](C)C[C@H](N(C)C)[C@H]2O)[C@](C)(O)C[C@@H](C)CN(C)[C@H](C)[C@@H](O)[C@]1(C)O is ___ 32

One more molecule: CC[C@H]1OC(=O)[C@H](C)[C@@H](O[C@H]2C[C@@](C)(OC)[C@@H](O)[C@H](C)O2)[C@H](C)[C@@H](O[C@@H]2O[C@H](C)C[C@H](N(C)C)[C@H]2O)[C@](C)(O)C[C@@H](C)C(=O)[C@H](C)[C@@H](O)[C@]1(C)O 512

One more molecule: CN(C)[C@@H]1C(O)=C(C(N)=O)C(=O)[C@@]2(O)C(O)=C3C(=O)c4c(O)cccc4[C@@](C)(O)[C@H]3[C@H](O)[C@@H]12 1

====

System: Staphylococcus aureus (MRSA) U50
Test: MIC-assay, Mueller-Hinton broth with G-block alginate, 384-well, OD600 (Table 12)
Assay type: cell-based
Condition details: MRSA 1040s, U50 MDR, G-block (OligoCF-5/20) 10%, read-out: MIC
Parameter measured: MIC

Fill in: MIC of O=C(O)c1cn(C2CC2)c2cc(N3CCNCC3)c(F)cc2c1=O [Ciprofloxacin] is ___ > 1020 mg/L

One more compound: CC(C)(O/N=C(\C(=O)N[C@@H]1C(=O)N2C(C(=O)[O-])=C(C[n+]3ccccc3)CS[C@H]12)c1csc(N)n1)C(=O)O [Ceftazidime] 2 mg/L

One more compound: CC[C@H]1OC(=O)[C@H](C)[C@@H](O[C@H]2C[C@@](C)(OC)[C@@H](O)[C@H](C)O2)[C@H](C)[C@@H](O[C@@H]2O[C@H](C)C[C@H](N(C)C)[C@H]2O)[C@](C)(O)C[C@@H](C)/C(=N\OCOCCOC)[C@H](C)[C@@H](O)[C@]1(C)O [Roxithromycin] 256 mg/L

One more compound: C[C@@H](O)[C@H]1C(=O)N2C(C(=O)O)=C(SCCN=CN)C[C@H]12 [Imipenem] < 0.0312 mg/L

One more compound: CN(C)[C@@H]1C(O)=C(C(N)=O)C(=O)[C@@]2(O)C(O)=C3C(=O)c4c(O)cccc4[C@@](C)(O)[C@H]3[C@H](O)[C@@H]12 [Oxytetracycline] 0.5 mg/L

One more compound: CC[C@H]1OC(=O)[C@H](C)[C@@H](O[C@H]2C[C@@](C)(OC)[C@@H](O)[C@H](C)O2)[C@H](C)[C@@H](O[C@@H]2O[C@H](C)C[C@H](N(C)C)[C@H]2O)[C@](C)(O)C[C@@H](C)[C@@H]2N[C@@H](COCCOC)O[C@H]([C@H]2C)[C@]1(C)O [Dirithromycin] 256 mg/L

====

Assign MIC to each entry below.
Test system: V22 6056 Acinetobacter
Test: MIC assay, CAMHB with alginate oligomer, no visible growth
Type: cell-based, Acinetobacter lwoffii
Condition details: Acinetobacter; Table 5; V22 MDR Acin. lwoff; OligoCF-5/20 0G; read-out: MIC
A number alone suffices; assume µg/mL.

Reported MIC for V22 6056 Acinetobacter, given C[C@H]1[C@H](NC(=O)/C(=N\OC(C)(C)C(=O)O)c2csc(N)n2)C(=O)N1S(=O)(=O)O ? 256

One more molecule: C[C@@H](O)[C@H]1C(=O)N2C(C(=O)O)=C(S[C@@H]3CN[C@H](C(=O)N(C)C)C3)[C@H](C)[C@H]12 256

One more molecule: CN(C)[C@@H]1C(O)=C(C(N)=O)C(=O)[C@@]2(O)C(O)=C3C(=O)c4c(O)cccc4[C@@](C)(O)[C@H]3[C@H](O)[C@@H]12 2

One more molecule: CC(C)(O/N=C(\C(=O)N[C@@H]1C(=O)N2C(C(=O)[O-])=C(C[n+]3ccccc3)CS[C@H]12)c1csc(N)n1)C(=O)O 16

====

Tested on: Burkholderia cepacia (LMG18941, ATCC-BAA-246)
Test: MIC-assay, Mueller-Hinton broth with G-block alginate, 384-well, OD600
Condition details: ATCCBAA246|LMG18941, Table 8, G-block (OligoCF-5/20) 10%
Mark Satisfied only for MIC values smaller than 30 mg/L; exact matches and larger values are Not satisfied.

In plain terms, does CC[C@H]1OC(=O)[C@H](C)[C@@H](O[C@H]2C[C@@](C)(OC)[C@@H](O)[C@H](C)O2)[C@H](C)[C@@H](O[C@@H]2O[C@H](C)C[C@H](N(C)C)[C@H]2O)[C@](C)(O)C[C@@H](C)[C@@H]2N[C@@H](COCCOC)O[C@H]([C@H]2C)[C@]1(C)O come in under 30 mg/L for MIC? Not satisfied

One more molecule: CC(C)(O/N=C(\C(=O)N[C@@H]1C(=O)N2C(C(=O)[O-])=C(C[n+]3ccccc3)CS[C@H]12)c1csc(N)n1)C(=O)O Satisfied

One more molecule: CC[C@H]1OC(=O)[C@H](C)[C@@H](O[C@H]2C[C@@](C)(OC)[C@@H](O)[C@H](C)O2)[C@H](C)[C@@H](O[C@@H]2O[C@H](C)C[C@H](N(C)C)[C@H]2O)[C@](C)(O)C[C@@H](C)/C(=N\OCOCCOC)[C@H](C)[C@@H](O)[C@]1(C)O Not satisfied

One more molecule: CC[C@H]1OC(=O)[C@H](C)[C@@H](O[C@H]2C[C@@](C)(OC)[C@@H](O)[C@H](C)O2)[C@H](C)[C@@H](O[C@@H]2O[C@H](C)C[C@H](N(C)C)[C@H]2O)[C@](C)(O)C[C@@H](C)C(=O)[C@H](C)[C@@H](O)[C@]1(C)O Not satisfied

One more molecule: CN(C)[C@@H]1C(O)=C(C(N)=O)C(=O)[C@@]2(O)C(O)=C3C(=O)c4c(O)cccc4[C@@](C)(O)[C@H]3[C@H](O)[C@@H]12 Not satisfied

One more molecule: CC[C@H]1OC(=O)[C@H](C)[C@@H](O[C@H]2C[C@@](C)(OC)[C@@H](O)[C@H](C)O2)[C@H](C)[C@@H](O[C@@H]2O[C@H](C)C[C@H](N(C)C)[C@H]2O)[C@](C)(O)C[C@@H](C)CN(C)[C@H](C)[C@@H](O)[C@]1(C)O Satisfied

====

Tested on: Pseudomonas aeruginosa ATCC 39324, mucoid type strain (R79)
Test: MIC assay, CAMHB with alginate oligomer, no visible growth
Type: cell-based
Condition details: Pseudomonas aeruginosa, ATCC39324, Table 1; R79; OligoCF-5/20 0G; read-out: MIC
Parameter measured: MIC (µg/mL)
A number alone suffices; assume µg/mL.

Reported MIC for Pseudomonas aeruginosa ATCC 39324, mucoid type strain (R79), given CN(C)[C@@H]1C(O)=C(C(N)=O)C(=O)[C@@]2(O)C(O)=C3C(=O)c4c(O)cccc4[C@@](C)(O)[C@H]3[C@H](O)[C@@H]12 [Oxytetracycline] ? 8

One more compound: CC[C@H]1OC(=O)[C@H](C)[C@@H](O[C@H]2C[C@@](C)(OC)[C@@H](O)[C@H](C)O2)[C@H](C)[C@@H](O[C@@H]2O[C@H](C)C[C@H](N(C)C)[C@H]2O)[C@](C)(O)C[C@@H](C)CN(C)[C@H](C)[C@@H](O)[C@]1(C)O [Azithromycin] 128

One more compound: C[C@H]1[C@H](NC(=O)/C(=N\OC(C)(C)C(=O)O)c2csc(N)n2)C(=O)N1S(=O)(=O)O [Aztreonam] 2

====

Tested on: PA01 Pseudomonas aeruginosa ATCC 15692
Test: MIC assay, two-fold antibiotic dilutions in CAMHB with alginate oligomer, no visible growth
Format: cell-based
Condition details: Pseudomonas aeruginosa, ATCC15692, Table 1; PA01; OligoCF-5/20 +2% G; read-out: MIC
Parameter measured: MIC (µg/mL)
A number alone suffices; assume µg/mL.

Fill in: MIC of CC[C@H]1OC(=O)[C@H](C)[C@@H](O[C@H]2C[C@@](C)(OC)[C@@H](O)[C@H](C)O2)[C@H](C)[C@@H](O[C@@H]2O[C@H](C)C[C@H](N(C)C)[C@H]2O)[C@](C)(O)C[C@@H](C)CN(C)[C@H](C)[C@@H](O)[C@]1(C)O [Azithromycin] is ___ 64

One more molecule: C[C@@H](O)[C@H]1C(=O)N2C(C(=O)O)=C(S[C@@H]3CN[C@H](C(=O)N(C)C)C3)[C@H](C)[C@H]12 [Meropenem] 2

One more molecule: CN(C)[C@@H]1C(O)=C(C(N)=O)C(=O)[C@@]2(O)C(O)=C3C(=O)c4c(O)cccc4[C@@](C)(O)[C@H]3[C@H](O)[C@@H]12 [Oxytetracycline] 4

One more molecule: C[C@H]1[C@H](NC(=O)/C(=N\OC(C)(C)C(=O)O)c2csc(N)n2)C(=O)N1S(=O)(=O)O [Aztreonam] 16

One more molecule: O=C(O)c1cn(C2CC2)c2cc(N3CCNCC3)c(F)cc2c1=O [Ciprofloxacin] 0.0625
